molecular target: Human Recombinant Matriptase 2 (Homo sapiens, UniProt Q8IU80); construct: purchased Enzo Life Sciences (an in-house preparation was also used) ALX-201-752-1; experiment: Matriptase 2 fluorescence based inhibition assay, Method A (100 mM TRIS pH 9, 1 mg/mL BSA); format: biochemical; settings: 1 uM; Assay Used A; read-out: Mar-2 % inhibition at 1 uM
Sequence (Q8IU80 whole entry): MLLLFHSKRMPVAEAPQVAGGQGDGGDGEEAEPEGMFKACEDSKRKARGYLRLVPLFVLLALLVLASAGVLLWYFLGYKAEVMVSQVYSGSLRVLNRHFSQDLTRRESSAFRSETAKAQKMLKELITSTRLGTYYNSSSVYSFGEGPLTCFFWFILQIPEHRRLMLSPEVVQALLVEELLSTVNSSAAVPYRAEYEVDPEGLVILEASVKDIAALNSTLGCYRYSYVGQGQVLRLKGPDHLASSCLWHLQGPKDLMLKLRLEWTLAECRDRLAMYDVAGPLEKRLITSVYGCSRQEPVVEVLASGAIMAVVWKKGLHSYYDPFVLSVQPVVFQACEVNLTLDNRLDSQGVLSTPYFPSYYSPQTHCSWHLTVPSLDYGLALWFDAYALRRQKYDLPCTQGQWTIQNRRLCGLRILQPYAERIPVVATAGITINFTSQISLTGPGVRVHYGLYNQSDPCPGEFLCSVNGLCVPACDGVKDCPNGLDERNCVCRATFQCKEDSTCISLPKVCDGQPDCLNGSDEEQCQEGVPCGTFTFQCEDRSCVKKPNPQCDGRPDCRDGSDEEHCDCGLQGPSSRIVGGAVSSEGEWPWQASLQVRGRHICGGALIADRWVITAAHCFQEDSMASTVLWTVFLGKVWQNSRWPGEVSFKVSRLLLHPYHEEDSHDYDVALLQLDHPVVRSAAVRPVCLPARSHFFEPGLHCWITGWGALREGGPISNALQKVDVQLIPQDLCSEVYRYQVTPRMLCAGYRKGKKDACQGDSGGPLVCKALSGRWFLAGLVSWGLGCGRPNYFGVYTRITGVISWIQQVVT
MEASURED PROPERTY: inhibition at 1 µM

// known answers, use as guide
inhibition at 1 µM measured on CN(C)C(=O)COc1ccc(NC(=O)c2cc3ccc(C(=N)N)cc3n2Cc2ccc(C(N)=O)cc2)cc1 = 25 to 50%

inhibition at 1 µM measured on COc1ccc(CCn2c(C(=O)N[C@H]3CC[C@H](N)CC3)cc3ccc(C(=N)N)cc32)cc1 = 25 to 50%

inhibition at 1 µM measured on CSc1cccc(NC(=O)c2cc3ccc(C(=N)N)cc3n2Cc2ccc(C(N)=O)cc2)c1 = 0 to 25%

inhibition at 1 µM measured on N=C(N)c1ccc2cc(C(=O)NCC3CCCCC3)n(CCS(=O)(=O)c3ccccc3)c2c1 = 0 to 25%

inhibition at 1 µM measured on N=C(N)c1ccc2cc(C(=O)Nc3ccc(Br)cc3F)n(Cc3ccc(C(N)=O)cc3)c2c1 = 0 to 25%

inhibition at 1 µM measured on C[C@H]1CC[C@H](NC(=O)c2cc3ccc(C(=N)N)cc3n2Cc2ccc(C(N)=O)cc2)CC1 = 0 to 25%

Consider the additional compound presented here.
inhibition at 1 µM measured on N=C(N)c1ccc2cc(C(=O)N[C@@H]3CC=CCC3)n(CCS(=O)(=O)c3ccccc3)c2c1 = 0 to 25%
